target: Trace amine-associated receptor 1 (Mus musculus, UniProt Q923Y8); experiment: Antagonist activity at mouse TAAR1 assessed as reversal of endogenous beta-PEA effect; type: functional
Sequence (Q923Y8 whole entry): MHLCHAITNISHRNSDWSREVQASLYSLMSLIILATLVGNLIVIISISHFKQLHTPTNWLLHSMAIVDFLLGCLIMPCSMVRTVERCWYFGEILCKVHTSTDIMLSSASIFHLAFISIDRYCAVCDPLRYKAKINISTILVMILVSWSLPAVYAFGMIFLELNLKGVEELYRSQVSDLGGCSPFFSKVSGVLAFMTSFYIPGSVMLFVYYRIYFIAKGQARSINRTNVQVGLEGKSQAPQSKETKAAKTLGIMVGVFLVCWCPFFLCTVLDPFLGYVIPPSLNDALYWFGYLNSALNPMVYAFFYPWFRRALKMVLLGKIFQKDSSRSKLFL
pIC50: −log10 of the molar value.
recorded-endpoint: pIC50

Answered examples (8):
{"columns": ["compound", "recorded-endpoint", "endpoint-value"],
 "data": [
  ["COc1cccc(NC(=O)c2ccc(Cl)c([N+](=O)[O-])c2)c1", "pIC50", 7.92],
  ["CC(=O)c1cccc(NC(=O)c2ccc(N3CCCC3)c(C(F)(F)F)c2)c1", "pIC50", 6.92],
  ["CCc1cccc(NC(=O)c2ccc(N3CCCC3)c(C(F)(F)F)c2)c1", "pIC50", 6.33],
  ["COc1cccc(NC(=O)c2ccc(N3CCC3)c([N+](=O)[O-])c2)c1", "pIC50", 6.70],
  ["O=C(Nc1cccc(Br)c1)c1ccc(N2CCCC2)c(C(F)(F)F)c1", "pIC50", 6.25],
  ["O=C(Nc1cccc(Cl)c1)c1ccc(N2CCCC2)c(C(F)(F)F)c1", "pIC50", 6.61],
  ["O=C(Nc1cccc(F)c1)c1ccc(N2CCCC2)c(C(F)(F)F)c1", "pIC50", 7.70],
  ["CC(C)Oc1cccc(NC(=O)c2ccc(N3CCCC3)c(C(F)(F)F)c2)c1", "pIC50", 7.57]
]}

P = O=C(Nc1cccc(OC(F)F)c1)c1ccc(N2CCCC2)c(C(F)(F)F)c1
Q = Cc1cccc(NC(=O)c2ccc(N3CCCC3)c(C(F)(F)F)c2)c1
R = COc1cccc(NC(=O)c2ccc(N3CCCCC3)c([N+](=O)[O-])c2)c1
S = COc1cccc(NC(=O)c2cccc([N+](=O)[O-])c2)c1
T = COc1cccc(NC(=O)c2ccc(Br)c([N+](=O)[O-])c2)c1
*Q* Sort these compounds on pIC50 so the largest reading comes first. // list labels; follow requested order
*A* R, T, Q, P, S
(R: 7.72, T: 7.37, Q: 7.15, P: 6.73, S: 6.18)

I = COc1cccc(NC(=O)c2ccc(Nc3ccccc3)c([N+](=O)[O-])c2)c1
II = COc1cccc(NC(=O)c2ccc(NCc3ccccc3)c([N+](=O)[O-])c2)c1
*Q* Kindly identify the item with the lower pIC50 figure among these two: I and II Output the label that corresponds to your choice.
*A* I

a = COc1cccc(NC(=O)c2ccc(N3CCCC3)c([N+](=O)[O-])c2)c1
b = COc1cccc(NC(=O)c2ccc(N3CCOCC3)c([N+](=O)[O-])c2)c1
*Q* Could you tell me which of these two has the smaller pIC50 figure? First: a Second: b Give the chosen item's label as your response.
*A* b
